Origin of the recorded values: ChEMBL document CHEMBL1121629

Assignment: determine reported ED50 for the given compounds.
species on record: Mus musculus; assay: Tested for potentiation of yohimbine toxicity in aggregated mice(Y); assay type: functional
Respond with the bare value in mg/kg.

Query block: Look at this compound and give its reported ED50. CNC(C)c1nnc2n1-c1ccc(Cl)cc1C(c1ccccc1)=NC2 (stereo not given)
Result block: 30

Query block: Look at this compound and give its reported ED50. NCCc1nnc2n1-c1ccccc1C(c1ccccc1)=NC2
Result block: 30

----------
species on record: Mus musculus; assay: Tested for potentiation of yohimbine toxicity in aggregated mice(Y); format: functional
outcome_measure: ED50

Query block: Look at this molecule and give its reported ED50. CN(C)Cc1nnc2n1-c1ccc(Cl)cc1C(c1ccccc1Cl)=NC2
Result block: > 30 mg/kg

Query block: Look at this molecule and give its reported ED50. NOCc1nnc2n1-c1ccc(Cl)cc1C(c1ccccc1)=NC2
Result block: > 50 mg/kg

Query block: Look at this molecule and give its reported ED50. CN(Cc1nnc2n1-c1ccc(Cl)cc1C(c1ccccc1)=NC2)C1CC1
Result block: > 50 mg/kg

Query block: Look at this molecule and give its reported ED50. CN1C(=O)CN=C(c2ccccc2)c2cc(Cl)ccc21
Result block: > 50 mg/kg

Query block: Look at this molecule and give its reported ED50. CN(C)OCc1nnc2n1-c1ccc(Cl)cc1C(c1ccccc1)=NC2
Result block: > 50 mg/kg

Query block: Look at this molecule and give its reported ED50. Clc1ccc2c(c1)C(c1ccccc1)=NCc1nnc(CNC3CC3)n1-2
Result block: > 50 mg/kg

Query block: Look at this molecule and give its reported ED50. CN(Cc1nnc2n1-c1ccc(Cl)cc1C(c1ccccc1)=NC2)CC1CC1
Result block: > 50 mg/kg

Query block: Look at this molecule and give its reported ED50. CC(N)c1nnc2n1-c1ccc(Cl)cc1C(c1ccccc1Cl)=NC2 (stereo not given)
Result block: > 50 mg/kg

Query block: Look at this molecule and give its reported ED50. Clc1ccc2c(c1)C(c1ccccc1)=NCc1nnc(CCCN3CCOCC3)n1-2
Result block: > 50 mg/kg

Query block: Look at this molecule and give its reported ED50. CC(N)c1nnc2n1-c1ccccc1C(c1ccccc1Cl)=NC2 (stereo not given)
Result block: > 50 mg/kg

Query block: Look at this molecule and give its reported ED50. CN(C)Cc1nnc2n1-c1ccccc1C(c1ccccc1Cl)=NC2
Result block: > 30 mg/kg

Query block: Look at this molecule and give its reported ED50. NCCc1nnc2n1-c1ccccc1C(c1ccccc1Cl)=NC2
Result block: > 50 mg/kg

Query block: Look at this molecule and give its reported ED50. C#CCN(C)Cc1nnc2n1-c1ccccc1C(c1ccccc1Cl)=NC2
Result block: > 50 mg/kg

Query block: Look at this molecule and give its reported ED50. CCN(CC)OCc1nnc2n1-c1ccc(Cl)cc1C(c1ccccc1)=NC2
Result block: > 50 mg/kg

Query block: Look at this molecule and give its reported ED50. CC(N)Cc1nnc2n1-c1ccc(Cl)cc1C(c1ccccc1Cl)=NC2 (stereo not given)
Result block: > 50 mg/kg

Query block: Look at this molecule and give its reported ED50. CN(C)Cc1nnc2n1-c1ccc(Cl)cc1/C(c1ccccc1)=N\CC2
Result block: > 50 mg/kg

Query block: Look at this molecule and give its reported ED50. CN(C)Cc1nnc2n1-c1ccc(Cl)cc1C(c1ccccc1)NC2 (stereo not given)
Result block: > 50 mg/kg

Query block: Look at this molecule and give its reported ED50. C[N+](C)([O-])Cc1nnc2n1-c1ccc(Cl)cc1C(c1ccccc1)=NC2
Result block: > 50 mg/kg

Query block: Look at this molecule and give its reported ED50. C=CCNCc1nnc2n1-c1ccc(Cl)cc1C(c1ccccc1)=NC2
Result block: > 50 mg/kg

Query block: Look at this molecule and give its reported ED50. NCCc1nnc2n1-c1ccc(Cl)cc1C(c1ccccc1Cl)=NC2
Result block: > 50 mg/kg
